test system: LIM 1899 colon carcinoma derived epithelial cells; test: Cellular activity, MTT cell growth assay, LIM1899; assay type: cell-based; settings: 96 h, 4 days incubation
Measured IC50 values are reported for all entries that follow.
Give the quantity in nM, number only.

Recorded IC50, per entry:
Cc1nc(Nc2ncc(C(=O)Nc3c(C)cccc3Cl)s2)cc(N2CCN(CCO)CC2)n1 [Dasatinib, reference compound]    1200
Cc1ccc(-c2nn(C(C)(C)CNC(=N)c3ccccc3)c3ncnc(N)c23)cc1 [Example 76]    19000
Cc1ccc(-c2nn(C(C)(C)CNC(=O)c3ccccc3)c3ncnc(N)c23)cc1 [Example 11]    1700

Field: next compound
Exercise: Tell me the measured IC50 of Cc1ccc(-c2nn(C(C)(C)CNC(=O)c3cscn3)c3ncnc(N)c23)cc1 [Example 64] , please.
Key: 880
